- methodDescription: Saturation solubility studies in various mediums
- Assay type: physicochemical
- testContext: pH 6.8 PB + 0.7% SLS, pH 6.8, aqueous with cosolvent or surfactant or cyclodextrin, thermodynamic from solid, pH 6.8 PB + 0.7% SLS, pH 6.80; read-out: Solubility
endpointName: solubility
Answer with the number, then the unit.

## Task Please give measured solubility of the following entry: CC(C)(C)c1cc(C(C)(C)C)c(NC(=O)c2c[nH]c3ccccc3c2=O)cc1O [Ivacaftor Form-L2]
## Result 260 µg/mL

---

- methodDescription: Saturation solubility studies in various mediums
- Type: physicochemical
- testContext: 0.01N HCl + 0.7% SLS, pH 2.12, aqueous with cosolvent or surfactant or cyclodextrin, thermodynamic from solid, 0.01N HCl + 0.7% SLS, pH 2.12; read-out: Solubility
endpointName: solubility

## Task Please give measured solubility of the following entry: CC(C)(C)c1cc(C(C)(C)C)c(NC(=O)c2c[nH]c3ccccc3c2=O)cc1O [Ivacaftor Form-L2]
## Result 260 µg/mL

---

- methodDescription: Saturation solubility studies in various mediums
- Type: physicochemical
- testContext: 50 mM Phosphate buffer + 0.7% SLS, pH 4.6, aqueous with cosolvent or surfactant or cyclodextrin, thermodynamic from solid, 50 mM Phosphate buffer + 0.7% SLS, pH 4.60; read-out: Solubility
endpointName: solubility (µg/mL)
// return numeric value only (unit: µg/mL, not printed)

## Task Please give measured solubility of the following entry: CC(C)(C)c1cc(C(C)(C)C)c(NC(=O)c2c[nH]c3ccccc3c2=O)cc1O [Ivacaftor Form-L2]
## Result 380

---

- methodDescription: Saturation solubility studies in various mediums
- Type: physicochemical
- testContext: pH 5.5 PB + 0.7% SLS, pH 5.53, aqueous with cosolvent or surfactant or cyclodextrin, thermodynamic from solid, pH 5.5 PB + 0.7% SLS, pH 5.53; read-out: Solubility
endpointName: solubility (µg/mL)
// return numeric value only (unit: µg/mL, not printed)

## Task Please give measured solubility of the following entry: CC(C)(C)c1cc(C(C)(C)C)c(NC(=O)c2c[nH]c3ccccc3c2=O)cc1O [Ivacaftor Form-L2]
## Result 260

---

- methodDescription: Saturation solubility studies in various mediums
- Format: physicochemical
- testContext: 0.001N HCl + 0.7% SLS, pH 3.12, aqueous with cosolvent or surfactant or cyclodextrin, thermodynamic from solid, 0.001N HCl + 0.7% SLS, pH 3.12; read-out: Solubility
endpointName: solubility (µg/mL)
// return numeric value only (unit: µg/mL, not printed)

## Task Please give measured solubility of the following entry: CC(C)(C)c1cc(C(C)(C)C)c(NC(=O)c2c[nH]c3ccccc3c2=O)cc1O [Ivacaftor Form-L2]
## Result 240

---

- methodDescription: Saturation solubility studies in various mediums
- Assay type: physicochemical
- testContext: 0.1N HCl + 0.7% SLS, pH 1.1, aqueous with cosolvent or surfactant or cyclodextrin, thermodynamic from solid, 0.1N HCl + 0.7% SLS, pH 1.10; read-out: Solubility
endpointName: solubility (µg/mL)
// return numeric value only (unit: µg/mL, not printed)

## Task Please give measured solubility of the following entry: CC(C)(C)c1cc(C(C)(C)C)c(NC(=O)c2c[nH]c3ccccc3c2=O)cc1O [Ivacaftor Form-L2]
## Result 150
